molecular target: PIK3CA (human) (UniProt P42336); test: Inhibition of A2780 Cell Proliferation
Sequence (P42336 whole entry, looked up): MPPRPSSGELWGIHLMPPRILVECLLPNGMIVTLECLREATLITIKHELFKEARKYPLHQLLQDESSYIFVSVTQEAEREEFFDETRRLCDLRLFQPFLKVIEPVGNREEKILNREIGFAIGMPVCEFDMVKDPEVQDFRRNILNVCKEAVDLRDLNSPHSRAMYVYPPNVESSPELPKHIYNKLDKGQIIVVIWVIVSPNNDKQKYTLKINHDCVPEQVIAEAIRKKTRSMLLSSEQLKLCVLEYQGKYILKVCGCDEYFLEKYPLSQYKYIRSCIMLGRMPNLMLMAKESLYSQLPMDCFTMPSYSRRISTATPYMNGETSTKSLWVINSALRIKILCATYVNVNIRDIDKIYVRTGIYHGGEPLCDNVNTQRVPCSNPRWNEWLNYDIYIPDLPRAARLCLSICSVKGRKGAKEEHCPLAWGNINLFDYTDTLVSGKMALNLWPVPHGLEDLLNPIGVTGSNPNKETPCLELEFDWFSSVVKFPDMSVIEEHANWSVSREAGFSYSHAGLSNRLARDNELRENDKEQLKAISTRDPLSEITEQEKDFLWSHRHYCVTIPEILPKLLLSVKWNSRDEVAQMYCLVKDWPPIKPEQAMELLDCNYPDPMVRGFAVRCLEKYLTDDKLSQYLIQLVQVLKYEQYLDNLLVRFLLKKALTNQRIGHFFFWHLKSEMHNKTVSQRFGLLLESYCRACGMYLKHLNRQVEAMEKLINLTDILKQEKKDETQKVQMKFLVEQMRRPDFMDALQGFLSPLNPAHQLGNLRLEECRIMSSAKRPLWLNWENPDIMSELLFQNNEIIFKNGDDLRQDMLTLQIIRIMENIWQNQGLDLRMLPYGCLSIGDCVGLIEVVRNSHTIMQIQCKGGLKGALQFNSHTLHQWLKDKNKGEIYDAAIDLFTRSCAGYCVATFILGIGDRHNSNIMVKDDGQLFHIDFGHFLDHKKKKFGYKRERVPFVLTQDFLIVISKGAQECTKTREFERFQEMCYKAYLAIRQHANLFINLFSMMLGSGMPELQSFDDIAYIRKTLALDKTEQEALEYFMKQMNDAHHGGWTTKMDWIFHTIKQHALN
pEC50: −log10 of the molar value.
Test readout: pEC50

Smiles data	Test readout	Assay value
CC(=O)Nc1nc2ccc(-c3cnc(N)c(CN(C)C)c3)cc2s1	pEC50	> 5.00
Nc1ncc(-c2ccc3nc(NC(=O)C(F)(F)F)cn3c2)cn1	pEC50	> 4.60
COc1ccc(CC(=O)Nc2cn3cc(-c4cnc(N)c(C(F)(F)F)c4)ccc3n2)cc1	pEC50	> 6.00
Nc1ncc(-c2ccc3nc(NC(=O)CCCC(=O)O)cn3n2)cc1C(F)(F)F	pEC50	> 4.60
COc1nc(-c2cc(F)c3nc(NC(C)=O)cn3c2)cnc1N	pEC50	> 4.60

---

molecular target: PIK3CA (human) (UniProt P42336); assay: Inhibition of A2780 Cell Proliferation

Compound	EC50
CC(C)(C)OC(=O)NCC(=O)Nc1cn2cc(-c3cnc(N)c(C(F)(F)F)c3)ccc2n1	< 10 µM
CON=Cc1cc(-c2ccc3nc(NC(C)=O)cn3c2)cnc1N	< 25 µM
CC(=O)Nc1cn2cc(-c3cnc(N)c(Oc4cccc(F)c4)n3)ccc2n1	< 1 µM
C=Cc1c(NC(C)=O)nc2ccc(-c3cnc(N)c(C(F)(F)F)c3)cn12	< 25 µM
CC(=O)Nc1cn2cc(-c3cnc(N)c(OC4CNC4)n3)ccc2n1	< 25 µM
CN(CC(=O)Nc1cn2cc(-c3cnc(N)c(C(F)(F)F)c3)ccc2n1)C(=O)OC(C)(C)C	< 10 µM
Nc1ncc(-c2ccc3nc(NC(=O)CCCN4CCOCC4)cn3c2)cc1C(F)(F)F	< 10 µM
Nc1ncc(-c2ccc3nc(NC(=O)CCCN4CCOCC4)cn3n2)cc1C(F)(F)F	< 1 µM
CC(=O)Nc1cn2cc(-c3cnc(N)c(C=O)c3)ccc2n1	< 10 µM
CC(=O)Nc1cn2nc(-c3cnc(N)cn3)ccc2n1	< 25 µM
CC(=O)Nc1cn2nc(-c3cnc(N)c(-c4ccccc4OC(F)(F)F)c3)ccc2n1	< 1 µM
CC(=O)Nc1cccc(-c2c(NC(C)=O)nc3ccc(-c4cnc(N)c(C(F)(F)F)c4)cn23)c1	< 25 µM
CC(=O)Nc1nc2ccc(-c3cnc(N)c(C(F)(F)F)c3)cn2c1Cl	< 10 µM
CC(=O)Nc1cn2cc(-c3cnc(N)c(CN4CCCC4)c3)ccc2n1	< 25 µM
CN(C)C1CCN(C(=O)Nc2cn3cc(-c4cnc(N)c(C(F)(F)F)c4)ccc3n2)C1 (stereo unspecified)	< 10 µM
Nc1ncc(-c2ccc3nc(NC(=O)N4CCC[C@H]4CO)cn3c2)cc1C(F)(F)F	< 10 µM
CC(=O)Nc1cn2nc(-c3cnc(N)c(CN4CCCC4)c3)ccc2n1	< 10 µM
CC(=O)Nc1cn2cc(-c3cnc(N)c(-c4ccc(OC(F)(F)F)cc4)c3)ccc2n1	< 1 µM
CC(=O)Nc1nc2ccc(-c3cnc(N)c(C(F)(F)F)c3)cn2c1-c1ccccc1	< 25 µM
Nc1ncc(-c2ccc3nc(NC(=O)[C@@H]4CCCCN4Cc4ccccc4)cn3c2)cc1C(F)(F)F	< 10 µM
CC(C)(C)OC(=O)NCCCC(=O)Nc1cn2nc(-c3cnc(N)c(C(F)(F)F)c3)ccc2n1	< 1 µM
Nc1ncc(-c2ccc3nc(NC(=O)CCCN4CCCCC4)cn3n2)cc1C(F)(F)F	< 1 µM
CC(=O)Nc1cn2nc(-c3cnc(N)c(-c4ccccc4Oc4ccccc4)c3)ccc2n1	< 10 µM
CC(=O)Nc1cn2cc(-c3cnc(N)c(C=NNCC(F)(F)F)c3)ccc2n1	< 1 µM
C/C=C\c1c(NC(C)=O)nc2ccc(-c3cnc(N)c(C(F)(F)F)c3)cn12	< 25 µM
CC(=O)Nc1cn2cc(-c3cnc(N)c(C#N)c3)ccc2n1	< 10 µM
CC(=O)Nc1cn2cc(-c3cnc(N)c(Oc4ccccc4)n3)ccc2n1	< 1 µM
CCN1CC[C@@H](OCC(=O)Nc2cn3cc(-c4cnc(N)c(C(F)(F)F)c4)ccc3n2)C1	< 10 µM
NCC(=O)Nc1cn2cc(-c3cnc(N)c(C(F)(F)F)c3)ccc2n1	< 10 µM
CCCc1c(NC(C)=O)nc2ccc(-c3cnc(N)c(C(F)(F)F)c3)cn12	< 25 µM
NC(=O)[C@@H]1CCCN1C(=O)Nc1cn2cc(-c3cnc(N)c(C(F)(F)F)c3)ccc2n1	< 10 µM
Nc1ncc(-c2ccc3nc(NC(=O)N4CCCC4C(F)(F)F)cn3c2)cc1C(F)(F)F (stereo unspecified)	< 10 µM
Nc1ncc(-c2ccc3nc(NC(=O)Cc4ccccn4)cn3c2)cc1C(F)(F)F	< 10 µM
COCCOc1nc(-c2ccc3nc(NC(=O)COC)cn3c2)cnc1N	< 10 µM
CC(=O)Nc1cn2nc(-c3cnc(N)cc3C(F)(F)F)ccc2n1	< 25 µM
COC(=O)CCCC(=O)Nc1cn2nc(-c3cnc(N)c(C(F)(F)F)c3)ccc2n1	< 10 µM
Nc1ncc(-c2ccc3nc(NC(=O)CCO)cn3c2)cc1C(F)(F)F	< 10 µM
CC(=O)Nc1cn2c(C)c(-c3cnc(N)c(C(F)(F)F)c3)ccc2n1	< 10 µM
CC(=O)Nc1nc2ccc(-c3cnc(N)c(Br)c3)cn2c1Br	< 10 µM
Nc1ncc(-c2ccc3nc(NC(=O)CCCO)cn3c2)cc1C(F)(F)F	< 10 µM
CCN1CCN(CCCC(=O)Nc2cn3cc(-c4cnc(N)c(C(F)(F)F)c4)ccc3n2)CC1	< 10 µM

---

Here's a batch of compounds along with measured Ki for PIK3CA (human) (UniProt P42336).

Smiles data	Ki
Nc1ncc(-c2ccc3nc(NC(=O)NCCn4nnc(C5CC5)n4)cn3c2)cc1C(F)(F)F	< 1000 nM
CCc1cnc(CCNC(=O)Nc2cn3cc(-c4cnc(N)c(C(F)(F)F)c4)ccc3n2)o1	< 1000 nM

---

Here the recorded pEC50 is given for each entry.
target: PIK3CA (human); experiment: Inhibition of A2780 Cell Proliferation
pEC50: −log10 of the molar value.

Molecule	Test target	pEC50
CC(=O)N1CCC[C@H]1C(=O)Nc1cn2cc(-c3cnc(N)c(Cl)c3)ccc2n1	PIK3CA (human)	> 4.60
Nc1ncc(-c2ccc3nc(NC(=O)CN4CCCCC4)cn3n2)cc1C(F)(F)F	PIK3CA (human)	> 5.00
CNCC(=O)Nc1cn2cc(-c3cnc(N)c(C(F)(F)F)c3)ccc2n1	PIK3CA (human)	> 6.00
CC(=O)Nc1cn2cc(-c3ccc(N)nc3)ccc2n1	PIK3CA (human)	> 5.00
CC(=O)Nc1nc2ccc(-c3cnc(N)c(C(F)(F)F)c3)cn2c1C#Cc1cccnc1	PIK3CA (human)	> 6.00
CC(C)(C)OC(=O)N1CCC1C(=O)Nc1cn2nc(-c3cnc(N)c(C(F)(F)F)c3)ccc2n1 (centres undefined)	PIK3CA (human)	> 4.60
CC(=O)Nc1cn2cc(-c3cnc(N)c(OC4CN(C(=O)OC(C)(C)C)C4)n3)ccc2n1	PIK3CA (human)	> 6.00
CC(=O)Nc1ccc(-c2c(NC(C)=O)nc3ccc(-c4cnc(N)c(C(F)(F)F)c4)cn23)cc1	PIK3CA (human)	> 4.60
CC(=O)Nc1cn2cc(-c3cnc(N)c(-c4ccccc4C(F)(F)F)c3)ccc2n1	PIK3CA (human)	> 5.00

---

biological target: PIK3CA (human); test: Inhibition of A2780 Cell Proliferation
Test readout: EC50

Compound	Assay value
CCC(=O)Nc1cn2cc(-c3cnc(N)c(OC)n3)ccc2n1	< 10 µM
Nc1ncc(-c2ccc3nc(NC(=O)CCCN4CCCCC4)cn3c2)cc1C(F)(F)F	< 10 µM
CC(=O)Nc1nc2ccc(-c3cnc(N)c(C(F)(F)F)c3)cn2c1C#Cc1ccncc1	< 1 µM
CC(=O)Nc1cn2cc(-c3cnc(N)c(-c4cccc(F)c4)c3)ccc2n1	< 10 µM
CC(=O)NC1CCN(C(=O)Nc2cn3cc(-c4cnc(N)c(C(F)(F)F)c4)ccc3n2)C1 (stereo not given)	< 25 µM
Nc1ncc(-c2ccc3nc(NC(=O)c4cccc(F)c4)cn3c2)cc1C(F)(F)F	< 10 µM
COc1ccc(CC(=O)Nc2cn3cc(-c4cnc(N)c(C(F)(F)F)c4)ccc3n2)cc1OC	< 10 µM
CC(=O)Nc1cn2cc(-c3cnc(N)c(C(=O)N4CCNCC4)c3)ccc2n1	< 25 µM
CC(=O)Nc1cn2cc(-c3cnc(N)c(-c4ccccc4F)c3)ccc2n1	< 10 µM
COc1cc(-c2ccc3nc(NC(C)=O)cn3n2)c(C)nc1N	< 25 µM

---

molecular target: PIK3CA (human) (UniProt P42336); experiment: Inhibition of A2780 Cell Proliferation
pEC50: −log10 of the molar value.
Test readout: pEC50

Molecule	Test target	Test readout	Assay value
COCCOc1nc(-c2ccc3nc(NC(C)=O)sc3c2)cnc1N	PIK3CA (human) (UniProt P42336)	pEC50	> 5.00
Nc1ncc(-c2ccc3nc(NC(=O)C4CCN4)cn3n2)cc1C(F)(F)F (stereo not given)	PIK3CA (human) (UniProt P42336)	pEC50	> 5.00
CC(=O)Nc1nc2ccc(-c3cnc(N)c(C(F)(F)F)c3)cn2c1-c1ccc(C(N)=O)cc1	PIK3CA (human) (UniProt P42336)	pEC50	> 4.60
Nc1ncc(-c2ccc3nc(NC(=O)c4ccc(N5CCNCC5)nc4)cn3c2)cc1C(F)(F)F	PIK3CA (human) (UniProt P42336)	pEC50	> 5.00
Nc1ncc(-c2ccc3nc(NC(=O)N4CC[C@H]4C(=O)O)cn3c2)cc1C(F)(F)F	PIK3CA (human) (UniProt P42336)	pEC50	> 4.60
CC(=O)Nc1cn2cc(-c3cnc(N)c(F)c3)ccc2n1	PIK3CA (human) (UniProt P42336)	pEC50	> 4.60
CNCC(=O)Nc1cn2nc(-c3cnc(N)c(C(F)(F)F)c3)ccc2n1	PIK3CA (human) (UniProt P42336)	pEC50	> 6.00
CCOc1nc(-c2ccc3nc(NC(C)=O)cn3n2)cnc1N	PIK3CA (human) (UniProt P42336)	pEC50	> 5.00
CN(CC(=O)Nc1cn2nc(-c3cnc(N)c(C(F)(F)F)c3)ccc2n1)C(=O)OC(C)(C)C	PIK3CA (human) (UniProt P42336)	pEC50	> 5.00
CC(=O)Nc1cn2cc(-c3cnc(N)c(OC4CCNCC4)n3)ccc2n1	PIK3CA (human) (UniProt P42336)	pEC50	> 4.60
C/C=C/c1c(NC(C)=O)nc2ccc(-c3cnc(N)c(C(F)(F)F)c3)cn12	PIK3CA (human) (UniProt P42336)	pEC50	> 5.00
CC(=O)Nc1cn2cc(-c3cnc(N)c(-c4ccccc4)n3)ccc2n1	PIK3CA (human) (UniProt P42336)	pEC50	> 5.00
CC(=O)Nc1cn2cc(-c3cnc(N)c(Oc4ccc(F)cc4)n3)ccc2n1	PIK3CA (human) (UniProt P42336)	pEC50	> 6.00
Nc1ncc(-c2ccc3nc(NC(=O)C(F)(F)F)cn3c2O)cc1C(F)(F)F	PIK3CA (human) (UniProt P42336)	pEC50	> 4.60
COc1ccc(C#Cc2c(NC(C)=O)nc3ccc(-c4cnc(N)c(C(F)(F)F)c4)cn23)cc1	PIK3CA (human) (UniProt P42336)	pEC50	> 5.00
CC(C)(C)OC(=O)N1CCC(OCC(=O)Nc2cn3cc(-c4cnc(N)c(C(F)(F)F)c4)ccc3n2)CC1	PIK3CA (human) (UniProt P42336)	pEC50	> 5.00
Nc1ncc(-c2ccc3nc(NC(=O)[C@H]4CCCN4)cn3n2)cc1C(F)(F)F	PIK3CA (human) (UniProt P42336)	pEC50	> 4.60
NCCCC(=O)Nc1cn2nc(-c3cnc(N)c(C(F)(F)F)c3)ccc2n1	PIK3CA (human) (UniProt P42336)	pEC50	> 4.60
CC(=O)Nc1cn2cc(-c3cnc(N)nc3)ccc2n1	PIK3CA (human) (UniProt P42336)	pEC50	> 4.60
Nc1ncc(-c2ccc3nc(NC(=O)CO[C@@H]4CCNC4)cn3n2)cc1C(F)(F)F	PIK3CA (human) (UniProt P42336)	pEC50	> 6.00

The values you see were collected from the Kinase Knowledgebase extract (Sharma et al. 2016).
